biological target: T1, c-Met/Fc Chimera (R&D Systems, catalog # 358-MT-100) (human, UniProt P08581 25-932); assay: competition ELISA: displacement of biotinylated HGF from plate-coated c-Met/Fc chimera, Fab, n = 2
T1 construct: extracellular domain; Bought reagent; also called human c-Met-Fc fusion protein; recombinant c-Met protein; Fc part of the bought chimera not given
measured.parameter: IC50

-- ask Requested read-out: IC50. Entry: c-Met 11986 Fab (Fab, V domains shown, VH and VL limits counted as for the IgG) VH: EVQLVQSGAEVKKPGATLKVSCKVSAYTFTDYSMHWVQQAPGKGLKWMGLIDLEDGNTIYAEEFQDRVTITADTSTDTAYMDLSSLRSEDTAVFYCAISPLRGLTADVFDVWGQGTLVTVSS VL: QSALTQPASASGSPGQSITISCTGTSSDIGRYDFVSWYQRQPGKAPKLMIYDVINRPSGVSSRFSGSKSGNTASLTISGLQAEDEADYYCSSYAGSTTLYVFGTGTKLTVLG
-- reply 80 nM

-- ask So what's the measured IC50 for this one? c-Met 12119 Fab (Fab, V domains shown, VH and VL limits counted as for the IgG; also called Fab fragment derived from c-Met antibody 12119) VH: QLQLQESGPGLVKPSGTLSLTCAVSGGSISTSDWWSWVRRPPGKGLEWIGEIYHSGSTNYHPSLKSRVTISLDKSKNQFSLKLSSVTAADTAVYYCAREGGHSGSYPLDYWGRGTLVTVSS VL: NFMLTQPHSVSESPGKTVTISCARSSGSIASNYVQWYQQRPGSSPTTLIYEDRQRPSGVPDRFSGSIDSSSNSASLTISGLKTEDEADYYCQSYDSSDHVVFGGGTKLTVLG
-- reply 10.7 nM

-- ask Request the reported IC50 associated with c-Met 12075 Fab (Fab, V domains shown, VH and VL limits counted as for the IgG; also called Fab fragment derived from c-Met antibody 12075) VH: QVQLVQSGPEVKKPGASVEVSCKASGYTFTGDYMHWVRQAPGQGPEWMGWINPQTGVTKYAQKFQGRVTMARDTSINTAYMELRGLRSDDTAVYYCVREDHNYDLWSAYNGLDVWGQGTLVTVSS VL: QSVLTQPPSVSAAPGQKVTISCSGSSSNIGNNHVSWYQQLAGTAPKLLIFDNDKRPSGIPDRFSGSKSGTSATLGITGLQTGDEADYYCGTWDKSPTDIYVFGSGTKLTVLG
-- reply > 125 nM

-- ask So what does the record say about IC50 for c-Met 11994 Fab (Fab, V domains shown, VH and VL limits counted as for the IgG; also called 11994-50; Fab fragment derived from c-Met antibody 11994) VH: QVQLQESGPGLVKPSGTLSLTCAVSGGSISTSDWWSWVRRPPGKGLEWIGEIYHSGSTNYHPSLKSRVTISLDKSKNQFSLKLSSVTAADTAVYYCAREGGHSGSYPLDYWGKGTLVTVSS VL: NFMLTQPHSVSESPGKTVTISCTRSSGSIASNYVQWYQQRPGSSPTTVIYEDNQRPSGVPDRFSGSIDSSSNSASLTISGLKTEDEADYYCQSYDSSNQGVVFGGGTKLTVLG ?
-- reply 24.6 nM
